- assayed system: T1, protocadherin-15 EC1+2, wild type, His-tagged (mouse, UniProt Q99PJ1 27-259)
- T1 construct: Protocadherin-15 (PCDH15), mouse, N-terminal fragment EC1+2; pET21a, NdeI/XhoI; predicted molecular weight 27.5 kDa; Held on the Ni-NTA chip by its His tag in SPR; also called pcdh15; pcdh15(WT); not shown: His6, C-terminal, kept
- assay notes: thermal scanning (thermal stability shift assay with SYPRO orange); pcdh15 fixed at 0.1 mg/mL (~4 μM), cdh23 0.1 to 0.5 mg/mL (~4 to 20 μM; cdh23:pcdh15 1:1 to 5:1); SEC buffer (20 mM Tris-HCl pH 7.5, 150 mM KCl, 50 mM NaCl, 2 mM CaCl2); 10 to 95°C in 0.2°C steps, 5 s equilibration; read-out: shift of the Tm of pcdh15 (ΔTm)
- condition description: both partners purified
Property: ΔTm of pcdh15 at cdh23:pcdh15 5:1; scope: individual proteins
Note: unit °C is implicit; provide only the numeric part.

{"protein": "cadherin-23 EC1+2 S76V, His-tagged (domain or fragment, mouse, Cadherin-23 (CDH23), mouse, N-terminal fragment EC1+2; Mutant of m1 made with QuikChange; also called cdh23(S76V)) QVNRLPFFTNHFFDTYLLISEDTPVGSSVTQLLARDMDNDPLVFGVSGEEASRFFAVEPDTGVVWLRQPLDRETKVEFTVEFSVSDHQGVITRKVNIQVGDVNDNAPTFHNQPYSVRIPENTPVGTPIFIVNATDPDLGAGGSVLYSFQPPSPFFAIDSARGIVTVIQELDYEVTQAYQLTVNATDQDKTRPLSTLANLAIIITD", "units text": "°C", "reported value": 5.4}
{"protein": "cadherin-23 EC1+2 F7E, His-tagged (domain or fragment, mouse, Cadherin-23 (CDH23), mouse, N-terminal fragment EC1+2; Mutant of m1 made with QuikChange; also called cdh23(F7E)) QVNRLPEFTNHFFDTYLLISEDTPVGSSVTQLLARDMDNDPLVFGVSGEEASRFFAVEPDTGVVWLRQPLDRETKSEFTVEFSVSDHQGVITRKVNIQVGDVNDNAPTFHNQPYSVRIPENTPVGTPIFIVNATDPDLGAGGSVLYSFQPPSPFFAIDSARGIVTVIQELDYEVTQAYQLTVNATDQDKTRPLSTLANLAIIITD", "units text": "°C", "reported value": 7}

Please look up its ΔTm of pcdh15 at cdh23:pcdh15 5:1: cadherin-23 EC1+2, wild type, His-tagged (domain or fragment, mouse, Cadherin-23 (CDH23), mouse, N-terminal fragment EC1+2; pET21a, NdeI/XhoI; predicted molecular weight 23.8 kDa; also called cdh23; cdh23(WT)) QVNRLPFFTNHFFDTYLLISEDTPVGSSVTQLLARDMDNDPLVFGVSGEEASRFFAVEPDTGVVWLRQPLDRETKSEFTVEFSVSDHQGVITRKVNIQVGDVNDNAPTFHNQPYSVRIPENTPVGTPIFIVNATDPDLGAGGSVLYSFQPPSPFFAIDSARGIVTVIQELDYEVTQAYQLTVNATDQDKTRPLSTLANLAIIITD 5.5

Reference for the values: paper PMC5736220
